- Test system: TK-10 renal
- Assay info: NCI-60 one-dose screen, 48 h (100 = growth as untreated, 0 = no growth, -100 = all killed)
- Test context: 10 µM unless noted
Compounds without any hit were thinned out: in the full panel of roughly 83,000, 20% have a hit.
Recorded growth for the following compounds
Parameter: growth (%)

{"Compound": "Cc1cc(C(=O)O)c(N)c(C)n1", "Endpoint value": 101}
{"Compound": "CN(C)c1ccc(/C=C\\N=Nc2ccc(Br)cc2)cc1", "Endpoint value": 68.5}
{"Compound": "O=S(=O)(NCCNc1cc(-c2cn(-c3ccccc3)nc2-c2ccccc2)ccn1)c1cccc2ccccc12", "Endpoint value": 66.8}
{"Compound": "CC(=O)OC[Si](C)(C)c1ccccc1", "Endpoint value": 107}
{"Compound": "CCCCn1c(=O)c(C2CNC(=O)c3ccccc3N2)cc2ccccc21 (stereo unspecified)", "Endpoint value": 109}
{"Compound": "CCn1cc(C(=O)O)c(=O)c2cc(F)c(N3CCN(S(=O)(=O)c4ccc(Cl)cc4Cl)CC3)cc21", "Endpoint value": 12.4}
{"Compound": "O=C1OC(c2ccccc2)=N/C1=C\\c1ccc([N+](=O)[O-])cc1", "Endpoint value": 97.4}
{"Compound": "Cc1ccc(Nc2ncnc3c2sc2ncccc23)cc1", "Endpoint value": 123}
{"Compound": "CCCC1OC(c2ccc(C(C)C)cc2)OCC1CC (stereo unspecified)", "Endpoint value": 97.1}
{"Compound": "C=CCN=C1NC(=O)/C(=C/c2cc(C(C)(C)C)c(O)c(C(C)(C)C)c2)S1", "Endpoint value": 79.4}
{"Compound": "O=S(=O)(NCCCNc1cc(-c2cn(-c3ccccc3)nc2-c2cccc(O)c2)ccn1)c1ccc(Cl)cc1", "Endpoint value": 33.5}

----------
growth overview
- System: CAKI-1 renal
- Assay info: NCI-60 one-dose screen, 48 h (100 = growth as untreated, 0 = no growth, -100 = all killed)
- Test context: 10 µM unless noted
This is part of a sample that, as a whole, favours compounds with a hit. Of some 83,000 tested, about 20% had one in any assay.
Parameter: growth (%)

{"Compound": "COC1=CC(c2ccc[nH]2)=N/C1=C\\c1[nH]c(C)c(C(=O)CCCCC(=O)Nc2ccccc2)c1C", "System name": "CAKI-1 renal", "Parameter": "growth", "Endpoint value": 3.42}
{"Compound": "COc1cc(/C=C/C(=O)c2ccc(NC(=O)CN3CCN(c4cc5c(cc4F)c(=O)c(C(=O)O)cn5C4CC4)CC3)cc2)cc(OC)c1OC", "System name": "CAKI-1 renal", "Parameter": "growth", "Endpoint value": 57.2}
{"Compound": "COc1cc(-c2csc(NC(=O)Nc3ccc(Cl)cc3Cl)n2)cc(OC)c1OC", "System name": "CAKI-1 renal", "Parameter": "growth", "Endpoint value": 37.8}
{"Compound": "COc1cc(-n2nc(C(=O)Nc3ccc(C(=O)O)cc3)nc2-c2ccccc2)cc(OC)c1OC", "System name": "CAKI-1 renal", "Parameter": "growth", "Endpoint value": 52.2}
{"Compound": "COc1ccc(-n2cnc3c(sc4ncc(Cl)cc43)c2=O)cc1", "System name": "CAKI-1 renal", "Parameter": "growth", "Endpoint value": 86.6}
{"Compound": "Cn1c(-c2nonc2NC(=O)c2ccc(F)cc2)nc2ccccc21", "System name": "CAKI-1 renal", "Parameter": "growth", "Endpoint value": 105}
{"Compound": "Nc1nc(N)c2nc(CNc3ccc(C(=O)CC(CCC(=O)O)C(=O)O)cc3)cnc2n1 (centres undefined)", "System name": "CAKI-1 renal", "Parameter": "growth", "Endpoint value": -3.87}
{"Compound": "Clc1cccc(Cl)c1Cn1c(-c2cncs2)nc2ccccc21", "System name": "CAKI-1 renal", "Parameter": "growth", "Endpoint value": 66.5}
{"Compound": "O=C1c2ccccc2C(=O)c2c(N=Nc3sc(=O)[nH]c3S)cccc21", "System name": "CAKI-1 renal", "Parameter": "growth", "Endpoint value": 96.3}
